B1: Twister Ribozyme (parent)
chain: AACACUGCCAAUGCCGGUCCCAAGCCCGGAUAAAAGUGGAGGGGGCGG

variants of: B1; assay: self-cleavage, relative activity (ratio to wild type); higher = more cleavage; co-transcriptional
Each record here notes measured self-cleavage.

[
  {
    "MUTATION LABEL": "U6A G42A",
    "self-cleavage": 0.198
  }
]

Incoming: Tell me the measured self-cleavage of C8U G41A , please.
Outgoing: 0.112

Incoming: Sample A22G G47U — what was its self-cleavage?
Outgoing: 0.136

Incoming: GET /values?readout=self-cleavage&item= G7C A11G
Outgoing: 0.106

Incoming: GET /values?readout=self-cleavage&item= C5G G42U
Outgoing: 0.0923

Incoming: Look up self-cleavage: A23U G42U
Outgoing: 0.0934

Incoming: Data request, read-out self-cleavage, for C14U G48U
Outgoing: 1.17

Incoming: Item C9G C46U has what recorded self-cleavage?
Outgoing: 0.609

Incoming: Which self-cleavage is listed for C5U G47A ?
Outgoing: 0.727

Incoming: Quick one: self-cleavage of A22G A30U ?
Outgoing: 0.316

Incoming: What value of measured self-cleavage is listed for C14A C27G ?
Outgoing: 0.0739

Incoming: What measured self-cleavage goes with U37G G42U ?
Outgoing: 0.163

Incoming: I'd like to know its self-cleavage. The variant in question is G41U G48A
Outgoing: 0.401

Incoming: For the variant shown here, G29A G44U , give the reported self-cleavage.
Outgoing: 0.922

Incoming: Bench note: what self-cleavage did A4U C26A show?
Outgoing: 0.0524

Incoming: # query: self-cleavage of entry A33G G44C
Outgoing: 0.752

Incoming: Consider the variant C14A G24U and give its measured self-cleavage.
Outgoing: 0.146

Incoming: I would be grateful if you could share the reported self-cleavage for A34U C46A .
Outgoing: 0.76

Incoming: Would you kindly share the measured self-cleavage for `A40U` ?
Outgoing: 0.158

Incoming: // self-cleavage lookup, key: C15G G47A
Outgoing: 0.0633
